PROPERTY LABEL: melting point

COc1nc(C)cnc1N(C(=O)OCC(C)C)S(=O)(=O)c1cccnc1-c1ccc(O)cc1    144 to 146 °C
CCCCNc1c(C)cccc1C    124 to 131 °C
CCOC(=O)C(NC(=O)Nc1c(F)cc(F)cc1CCc1cc(C(C)(C)C)c(O)c(C(C)(C)C)c1)c1ccccc1 (stereo not given)    162 to 164 °C
CCOC(=O)c1ccc(OC2CCN(C(=O)OC(C)(C)C)CC2)cc1    76 to 78 °C

The recorded melting point for entry Cc1ccccc1C1=NC(C)(C)OC1c1ccc(N(C)C)cc1 (stereo not given) equals 89 to 90 °C

The recorded melting point for entry `Cc1c(NC(=O)c2ccc(-c3cc4ccccc4o3)cc2)ccc2cc(CN3CCCC3)cnc12` equals 217 to 218 °C

The recorded melting point for entry `CC[Si](CC)(CC)c1cccc(-c2ccccc2)c1O` equals 44 to 46 °C

The recorded melting point for entry O=C1C=C(O)CC(c2ccc3c(c2)CCC3)C1 (stereo not given) equals 198 °C

The recorded melting point for entry `O=c1[nH]c2ccc(-c3cccnc3)cc2cc1Br` equals 297 to 300 °C

The recorded melting point for entry `O=C(c1[nH]c2ccc(F)cc2c1Sc1ccccn1)N1CCCC1` equals 204 to 206 °C

###

Catalogue of melting point values

Worked set:
OC1CSC(Oc2cncc(C(F)(F)F)c2)C(O)C1O (stereo not given)    160 to 161 °C
Oc1nc(-c2cccnc2)sc1-c1ccccc1    273 to 276 °C
Cc1sc2c(c1C(=O)CCN1CCN(c3nsc4ccccc34)CC1)NC(=O)CCC2    146 to 147 °C
CC(C)[C@H](NC(=O)OCc1csc(N(C)C)n1)C(=O)N[C@@H](Cc1ccccc1)C[C@H](O)[C@H](Cc1ccccc1)NC(=O)OCc1cncs1    162 to 165 °C

Here's the next entry for you.
The recorded melting point for entry `CC(C)(C)OC(=O)NCCNC(=O)c1ncccc1Oc1cccc(Cl)c1` equals 86 to 87 °C

###

Catalogue of melting point values

The recorded melting point for entry `CCCCc1ncc(/C=C(\Cc2ccc(OC)s2)C(=O)O)n1Cc1ccccc1Cl` equals 184 to 186 °C

###

Catalogue of melting point values

CCOC(=O)C(NC(=O)CNC(=O)OCc1ccccc1)C(=O)OCC    94.5 to 95.5 °C
CCOC(=O)C1=CC(C(=O)c2cc(Cl)c(C)cc2O)=CN2CCc3c([nH]c4ccccc34)C12C(=O)OCC (stereo not drawn)    196 °C
CCCc1c(OCCCSc2nc3ccc(C(=O)O)cc3[nH]2)ccc(C(C)=O)c1O    106 to 108 °C
COc1ccc(C=CC(=O)O)cc1-c1cc2c(cc1OCCCO)C(C)(C)CCC2(C)C    198 to 200 °C
COc1ccc(CNc2nc(Cl)ncc2C(=O)c2cc(OC)c(OC)c(OC)c2)cc1Cl    165 °C
CC1(C)CCC(C)(C)c2cc(C(N)C(=O)Nc3ccc(C(=O)OCc4ccccc4)cc3)ccc21 (stereo not drawn)    196 to 197 °C
N#Cc1ccc(-c2csc(N3C(=O)OC[C@H]3CF)n2)cc1    195 to 196 °C
N#Cc1cc(-c2ccc3c(c2)C2(CCCC2)C(=O)N3)ccc1F    264 to 266 °C

The recorded melting point for entry `CC(=O)Oc1ccccc1C(=O)CNc1c(C(=O)O)[nH]c2cc(Cl)ccc12` equals 184 to 186 °C

The recorded melting point for entry COc1ccc(N2CCN(c3c(C)c(C)c4c(c3C)C(O)(C3CCCCC3)C(C)(C)O4)CC2)cc1 (stereo not drawn) equals 166 to 167 °C

The recorded melting point for entry `CN1CCN(C(=O)Cn2nnnc2S)CC1` equals > 250 °C

The recorded melting point for entry `CCCCCCCCCCCCCCOC(=O)CS(=O)(=O)Nc1c(C(C)C)cccc1C(C)C` equals 53 to 55 °C

The recorded melting point for entry `N#Cc1ccccc1-c1ccc(CBr)c(Br)c1` equals 152 to 153 °C

The recorded melting point for entry COC(=O)C1=C(Cl)/C(=N/OS(C)(=O)=O)CC(c2ccc(Cl)c(OC)c2F)N1 (stereo not drawn) equals 64 to 66 °C

The recorded melting point for entry [N-]=[N+]=NCC1OC(n2c(N=[N+]=[N-])nc3c(N)ncnc32)C(O)C1O (stereo not drawn) equals 128 to 130 °C
